- assayed_system: TLR8 (Homo sapiens)
- Sequence (Q9NR97 27-1041): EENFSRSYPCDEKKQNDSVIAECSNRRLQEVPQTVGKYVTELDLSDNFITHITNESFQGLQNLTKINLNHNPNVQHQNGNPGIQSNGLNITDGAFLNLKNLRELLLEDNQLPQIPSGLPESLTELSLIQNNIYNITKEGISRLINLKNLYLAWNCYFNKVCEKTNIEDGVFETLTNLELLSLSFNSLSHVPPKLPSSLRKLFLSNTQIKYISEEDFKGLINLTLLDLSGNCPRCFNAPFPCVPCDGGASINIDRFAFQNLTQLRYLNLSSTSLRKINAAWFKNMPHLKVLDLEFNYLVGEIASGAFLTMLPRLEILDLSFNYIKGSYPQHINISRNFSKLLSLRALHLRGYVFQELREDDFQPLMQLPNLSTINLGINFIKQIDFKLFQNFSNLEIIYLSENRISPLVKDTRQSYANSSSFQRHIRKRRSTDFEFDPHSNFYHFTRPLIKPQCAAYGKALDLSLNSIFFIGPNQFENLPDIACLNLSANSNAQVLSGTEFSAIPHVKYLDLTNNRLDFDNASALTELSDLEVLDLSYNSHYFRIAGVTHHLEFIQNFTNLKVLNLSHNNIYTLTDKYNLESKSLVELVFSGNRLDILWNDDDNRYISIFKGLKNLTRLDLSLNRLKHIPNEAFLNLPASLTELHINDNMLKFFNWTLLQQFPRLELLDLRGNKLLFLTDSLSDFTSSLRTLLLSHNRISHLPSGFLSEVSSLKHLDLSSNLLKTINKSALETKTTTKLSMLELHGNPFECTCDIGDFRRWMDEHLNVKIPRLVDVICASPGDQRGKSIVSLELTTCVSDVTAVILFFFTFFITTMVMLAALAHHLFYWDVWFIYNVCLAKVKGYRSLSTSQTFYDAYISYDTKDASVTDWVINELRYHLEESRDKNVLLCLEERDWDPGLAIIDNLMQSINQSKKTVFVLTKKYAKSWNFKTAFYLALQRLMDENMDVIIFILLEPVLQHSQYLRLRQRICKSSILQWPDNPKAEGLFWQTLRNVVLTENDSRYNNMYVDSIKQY
- assay_details: PBMC assay for TLR8 (TNFα in supernatants by ELISA)
- Type: cell-based
- Design: Peripheral blood mononuclear cells (PBMCs) from human blood were isolated; endogenous in cells; host or cells: human PBMCs
- stated_conditions: human PBMCs incubated with compound overnight, MC50 = concentration at which 50% of maximum induction is seen
pEC50: −log10 of the molar value.
Each entry below carries its recorded pEC50.

[[record]]
molecule = "CCCN(CCC)C(=O)C1=Cc2ccc(-c3cccc(CC(=O)OCC)c3)cc2N=C(N)C1 [Compound 205]"
measured_result = "6.00 to 7.00"

[[record]]
molecule = "CCCN(CCCS(N)(=O)=O)C(=O)C1=Cc2ccc(-c3ccc(C(=O)N4CCCC4)cc3)cc2N=C(N)C1 [Compound 177]"
measured_result = "6.00 to 7.00"

[[record]]
molecule = "CCCN(CCC)C(=O)C1=Cc2ccc(-c3ccc(CC(=O)O)cc3)cc2N=C(N)C1 [Compound 191]"
measured_result = "5.00 to 6.00"

[[record]]
molecule = "CCCN(CCCO)C(=O)C1=Cc2ccc(-c3ccc(CCC(=O)OCC(C)C)cc3)cc2N=C(N)C1 [Compound 219]"
measured_result = "5.00 to 6.00"

[[record]]
molecule = "CCCN(CCCO)C(=O)C1=Cc2ccc(-c3ccc(CC(=O)OCc4ccccc4)cc3)cc2N=C(N)C1 [Compound 218]"
measured_result = "6.00 to 7.00"

[[record]]
molecule = "CCCN(CCCO)C(=O)C1=Cc2ccc(-c3ccc4c(c3)COC4=O)cc2N=C(N)C1 [Compound 221]"
measured_result = "6.00 to 7.00"


Record CCCN(CCCO)C(=O)C1=Cc2ccc(-c3ccc(CC(=O)OCC)cc3)cc2N=C(N)C1 [Compound 214] . Reported pEC50: 7.00 to 9.00

Value of pEC50 reported for the molecule CCCN(CCCO)C(=O)C1=Cc2ccc(-c3ccc(CC(=O)OC)cc3)cc2N=C(N)C1 [Compound 213] is 6.00 to 7.00
